Reference source: PubChem BioAssay AID2060325

System: SK-OV-3 multi-cell spheroids, viability
Assay: Anticancer human tumor SK-OV-3 cell line growth inhibition [IpAb]
Conditions: curve of first compound; second compound 0.01 µM
reported_endpoint: pIC50
Would you please state pIC50, meaning minus log10 of the concentration in mol/L, as a bare number?

// known answers, use as guide
Request the reported pIC50 associated with Cn1ncc(Cl)c1-c1cc(C(=O)NC(CN)Cc2cccc(F)c2)sc1Cl (stereo not given) + CCN1CCN(Cc2ccc(Nc3ncc(F)c(-c4cc(F)c5nc(C)n(C(C)C)c5c4)n3)nc2)CC1
7.18

Cool, now CCCS(=O)(=O)Nc1ccc(F)c(C(=O)c2c[nH]c3ncc(-c4ccc(Cl)cc4)cc23)c1F + CCN1CCN(Cc2ccc(Nc3ncc(F)c(-c4cc(F)c5nc(C)n(C(C)C)c5c4)n3)nc2)CC1
5.03

What about C=CCn1c(=O)c2cnc(Nc3ccc(N4CCN(C)CC4)cc3)nc2n1-c1cccc(C(C)(C)O)n1 + CCN1CCN(Cc2ccc(Nc3ncc(F)c(-c4cc(F)c5nc(C)n(C(C)C)c5c4)n3)nc2)CC1 ?
7.05

Try this molecule too: Cn1nccc1Nc1nccc(-c2ccn(C(CO)c3ccc(Cl)c(F)c3)c(=O)c2)n1 (stereo not given) + CCN1CCN(Cc2ccc(Nc3ncc(F)c(-c4cc(F)c5nc(C)n(C(C)C)c5c4)n3)nc2)CC1
5.13

***
Look up pIC50: CC(C)(C)c1cnc(CSc2cnc(NC(=O)C3CCNCC3)s2)o1 + CCN1CCN(Cc2ccc(Nc3ncc(F)c(-c4cc(F)c5nc(C)n(C(C)C)c5c4)n3)nc2)CC1
6.71
